Hey, just so you know, these numbers are from the supplement of paper PMC10981050.

- System: MARIMO
- procedure summary: cell viability relative to vehicle control; higher = less cytotoxic;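 note: after 48 h exposure read by CellTiter-Glo luminescence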
- condition info: 10 µM; SRSF2 genotype: SRSF2 P95H/wt
Structures can show the parent of a compound that is named as a salt.
Give measured cell viability for each item. Keep answers brief.
One number for each entry, in %.

Hello, I am looking for reported cell viability with MARIMO for COc1ccc(-c2coc3cc(O)cc(O)c3c2=O)cc1 [Biochanin A (4-Methylgenistein)] . Could you help?
79.3

Hello, I am looking for reported cell viability with MARIMO for CC(C)c1cc(-c2ccc(F)c3ccccc23)nc(N)n1 . Could you help?
89.5

Hello, I am looking for reported cell viability with MARIMO for Cn1cnc(-c2cc3nccc(Oc4ccc(NC(=S)NC(=O)Cc5ccccc5)cc4F)c3s2)c1 . Could you help?
87.8

Hello, I am looking for reported cell viability with MARIMO for CCCCCCCCC(=O)O [Nonanoic acid] . Could you help?
108

Hello, I am looking for reported cell viability with MARIMO for O=C(O)Cn1nnc(-c2cc(N3CCC(Oc4cc(F)ccc4Br)CC3)no2)n1 . Could you help?
101

Working through the 4 molecules below one at a time, give cell viability for each.
1. COCCOC(=O)C1=C(C)NC(C)=C(C(=O)OC/C=C/c2ccccc2)C1c1cccc([N+](=O)[O-])c1 (configuration not stated) [Cilnidipine]
2. CCOC(=O)[C@H](CCc1ccccc1)N[C@H]1CCc2ccccc2N(CC(=O)O)C1=O [Benazepril hydrochloride]
3. O=P(O)(O)Oc1cccc2ccccc12 [1-Naphthyl phosphate potassium salt]
4. Cc1cc(C(N)=O)ccc1-n1c(CCC(=O)O)ccc1-c1ccc(-n2ccnc2)cc1

88.1
101
87.5
105

Working through the 5 molecules below one at a time, give cell viability for each.
1. CCCc1nc2c(C)cc(-c3nc4ccccc4n3C)cc2n1Cc1ccc(-c2ccccc2C(=O)O)cc1 [Telmisartan (Micardis)]
2. O=C(Nc1ccc2c(O)cc(S(=O)(=O)O)cc2c1)Nc1ccc2c(O)cc(S(=O)(=O)O)cc2c1
3. NC(=O)c1nc(F)cnc1O [Favipiravir (T-705)]
4. O=C(O)CNC(=O)c1nc(Cl)c2ccccc2c1O
5. CC1CNc2c(cccc2S(=O)(=O)N[C@@H](CCCNC(=N)N)C(=O)N2CC[C@@H](C)C[C@@H]2C(=O)O)C1 (some centres not stated) [Argatroban Monohydrate]

112
110
91.7
80.5
96.9

Working through the 3 molecules below one at a time, give cell viability for each.
1. CCC(=O)O[C@]1(C(=O)CCl)[C@@H](C)C[C@H]2[C@@H]3C[C@H](F)C4=CC(=O)C=C[C@]4(C)[C@@]3(F)[C@@H](O)C[C@@]21C [Halobetasol Propionate]
2. C/C(=N\NC(=O)c1cccc(S(=O)(=O)N2CCOCC2)c1)c1cc(Cl)ccc1O
3. CC/C(=C(\c1ccc(O)cc1)c1ccc(OCCN(C)C)cc1)c1ccccc1 [4-Hydroxytamoxifen]

[101, 20.1, 55.8]

* * *

- System: MARIMO
- procedure summary: cell viability relative to vehicle control; higher = less cytotoxic
- condition info: 10 µM; SRSF2 genotype: SRSF2 wt/wt
Where a name gives a salt, the structure may show the parent alone.
metric: cell viability (%)
Numbers only, in %.

Example entries begin here.
Could you share which cell viability value was measured for C[N+]12CCc3cc4c(cc3C1(O)Cc1ccc3c(c1C2)OCO3)OCO4 (stereo not drawn) [Hydroprotopine] ?
91.9

Could you share which cell viability value was measured for COc1ccc(-c2ccc3cc(C(=O)O)ccc3c2)cc1C12CC3CC(CC(C3)C1)C2 ?
26.6

Could you share which cell viability value was measured for Cc1cc(C)nc(NS(=O)(=O)c2ccc(N)cc2)n1 [Sulfamethazine Sodium Salt] ?
106

Could you share which cell viability value was measured for CC(C)[C@H](CO)Nc1nc(Nc2cccc(Cl)c2)c2ncn(C(C)C)c2n1 ?
83

Could you share which cell viability value was measured for O=C(O)COc1ccc(Br)cc1C=C1SC(=S)N(Cc2cccnc2)C1=O [Skp2 inhibitor C1 (SKPin C1)] ?
18.6

Working through the 2 compounds below one at a time, give cell viability for each.
1. O=C(O)CCn1c(O)c(C2=c3cc(Cl)ccc3=NC2=O)sc1=S
2. Clc1ccc(NN=C(c2ccccc2)c2ccccn2)nc1

88.7
0.76

* * *

Give measured cell viability for each item. Keep answers brief.
- Tested on: OCI-AML2
- procedure summary: cell viability relative to vehicle control; higher = less cytotoxic
- condition info: 10 µM; SRSF2 genotype: wt/wt
Structures can show the parent of a compound that is named as a salt.
Answers are plain numbers, in %.

Example entries begin here.
Could you share which cell viability value was measured for O=C(O)c1ccc2c(c1)nc(Nc1cccc(Cl)c1)c1ccncc12 [cx-4945 (Silmitasertib)] ?
22.2

Could you share which cell viability value was measured for O=c1[nH]cnc2c1ncn2[C@@H]1O[C@H](CO)[C@@H](O)[C@H]1O [Inosine] ?
114

Could you share which cell viability value was measured for O=c1cc(-c2ccc(O[C@@H]3O[C@H](CO)[C@@H](O)[C@H](O)[C@H]3O)cc2)oc2cc(O)c([C@@H]3O[C@H](CO)[C@@H](O)[C@H](O)[C@H]3O[C@@H]3OC[C@H](O)[C@H](O)[C@H]3O)c(O)c12 [Vaccarin] ?
96

Could you share which cell viability value was measured for CC(=O)O[C@]1(C(C)=O)CC[C@H]2[C@@H]3C=C(Cl)C4=CC(=O)[C@@H]5C[C@@H]5[C@]4(C)[C@H]3CC[C@@]21C [Cyproterone acetate] ?
77.4

Could you share which cell viability value was measured for CCCNC(C)C(=O)Nc1c(C)csc1C(=O)OC (configuration not stated) [Articaine HCl] ?
99.9

Working through the 2 molecules below one at a time, give cell viability for each.
1. N/N=c1\[nH][nH]/c(=N\N)c2ccccc12 [Dihydralazine sulphate]
2. Cc1oc2nc3c(c(NC(=O)CN4CCCC4=O)c2c1C)CCCC3 [Coluracetam]

[95.4, 99.4]

* * *

- System: MOLM14
- procedure summary: cell viability relative to vehicle control; higher = less cytotoxic
- condition info: 10 µM; SRSF2 genotype: SRSF2 P95H/wt
Where a name gives a salt, the structure may show the parent alone.
Give measured cell viability for each item. Keep answers brief.
Answers are plain numbers, in %.

Example entries begin here.
Could you share which cell viability value was measured for Cc1ccc(O)c([C@H](CCN(C(C)C)C(C)C)c2ccccc2)c1 [Tolterodine tartrate (Detrol LA)] ?
70

Could you share which cell viability value was measured for O=C(N[C@@H](c1ccccc1)[C@@H](O)C(=O)O)c1ccccc1 ?
103

Working through the 2 molecules below one at a time, give cell viability for each.
1. OC[C@H]1O[C@@H](n2cnc3c(O)nc(O)nc32)[C@H](O)[C@@H]1O
2. COc1cc(-c2oc3cc(O)cc(O)c3c(=O)c2O[C@@H]2O[C@H](CO[C@@H]3O[C@@H](C)[C@H](O)[C@@H](O)[C@H]3O)[C@@H](O)[C@H](O)[C@H]2O)ccc1O [Narcissoside]

1. 99.6
2. 107

* * *

- Tested on: MOLM14
- procedure summary: cell viability relative to vehicle control; higher = less cytotoxic
- condition info: 10 µM; SRSF2 genotype: SRSF2 wt/wt
Counter-ions that a name gives are not always drawn.
metric: cell viability
I'd appreciate it if you wrote the number followed by its unit.

Example entries begin here.
Could you share which cell viability value was measured for COc1cc2nc(N3CCN(C(=O)C4CCCO4)CC3)nc(N)c2cc1OC (stereo not given) [Terazosin HCl Dihydrate] ?
96.2%

Could you share which cell viability value was measured for Nc1nccc(Oc2ccc3c(C(=O)Nc4cccc(C(F)(F)F)c4)cccc3c2)n1 ?
102%

Could you share which cell viability value was measured for CC1OC(OC2C(OC3CCC4(C)C(CCC5(C)C4CC=C4C6CC(C)(C)CCC6(C(=O)OC6OC(COC7OC(CO)C(O)C(O)C7O)C(O)C(O)C6O)CCC45C)C3(C)CO)OCC(O)C2O)C(O)C(OC2OC(CO)C(O)C(O)C2O)C1O (stereo not given) ?
96.6%

Could you share which cell viability value was measured for CN(C)CCC[C@@]1(c2ccc(F)cc2)OCc2cc(C#N)ccc21 [Escitalopram Oxalate] ?
93.7%

Now look at this one.
Could you share which cell viability value was measured for COc1ccnc2[nH]cc(C(=O)C(=O)N3CCN(C(=O)c4ccccc4)C[C@H]3C)c12 ?
90.3%

* * *

- System: OCI-AML2
- procedure summary: cell viability relative to vehicle control; higher = less cytotoxic
- condition info: 10 µM; SRSF2 genotype: wt/wt
Where a name gives a salt, the structure may show the parent alone.
// returns condition not met unless cell viability is strictly below 90%, in which case condition met

Solved cases below.
Hello, I'm reviewing records and need to know if cell viability of Cn1cc(-c2ccc3nnc(Sc4ccc5ncccc5c4)n3n2)cn1 is below 90%. Could you check?
condition not met

Hello, I'm reviewing records and need to know if cell viability of c1cc(-c2cnn3cc(-c4ccc(N5CCNCC5)cc4)cnc23)c2cccnc2c1 is below 90%. Could you check?
condition met

Hello, I'm reviewing records and need to know if cell viability of CCS(=O)(=O)Nc1ccc(Oc2ccc(F)cc2F)c(-c2cn(C)c(=O)c3[nH]ccc23)c1 [ABBV-075 (Mivebresib)] is below 90%. Could you check?
condition met

Hello, I'm reviewing records and need to know if cell viability of C=CC(=O)Nc1cccc(Oc2nc(Nc3ccc(N4CCN(C)CC4)cc3OC)ncc2Cl)c1 is below 90%. Could you check?
condition met

Hello, I'm reviewing records and need to know if cell viability of COc1cc2c(cc1OC)[C@H]1C[C@@H](OC(=O)[C@@H](N)C(C)C)[C@H](CC(C)C)CN1CC2 [Valbenazine tosylate] is below 90%. Could you check?
condition not met

Next:
Hello, I'm reviewing records and need to know if cell viability of CCS(=O)(=O)Nc1ccc2[nH]c(O)c(C(=Nc3ccc(CN4CCCCC4)cc3)c3ccccc3)c2c1 [Hesperadin] is below 90%. Could you check?
condition met

Hello, I'm reviewing records and need to know if cell viability of CN1CC[C@H](c2c(O)cc(O)c3c(=O)cc(-c4ccccc4Cl)oc23)[C@H](O)C1 [Flavopiridol (Alvocidib)] is below 90%. Could you check?
condition met

Hello, I'm reviewing records and need to know if cell viability of COC1C(O)C(O)C(O)C(O)C1O (centres undefined) [Sequoyitol] is below 90%. Could you check?
condition not met
